Assay Overview: gradient 5% acetonitrile 3 min, to 50% in 2 min, to 85% in 15 min, held 3 min, 100 µL/min
Experimental Conditions: column: Zorbax Extend-C18 2.1 x 50 mm; eluents: water / acetonitrile, 0.1% formic acid
Measurement Kind: RP-LC retention time (s)

- Molecule: "Cc1cccc(N2CC(C(=O)N(C)C)CC2=O)c1 (stereo not given)"
  Test Value: 660
- Molecule: "Cc1nc(N2CCN(c3ccccn3)CC2)nc2c1C(=O)CC(c1ccc(Cl)cc1)C2 (stereo not given)"
  Test Value: 823
- Molecule: "O=C(NCc1ccc(F)cc1)Nc1cccc(-c2ccc(N3CCOCC3)nn2)c1"
  Test Value: 674
- Molecule: "O=C(Nc1ccc(F)cc1)C1(c2cccs2)CCOCC1"
  Test Value: 798
- Molecule: "Cc1ccc(CSc2nc(CC(=O)N3CCC(C(N)=O)CC3)cs2)cc1"
  Test Value: 680
- Molecule: "O=C(NC1CCN(c2cc(-c3ccccc3)[nH]n2)CC1)c1ccoc1"
  Test Value: 676
- Molecule: "O=C(COc1ccc(Cl)cc1)Nc1ccc(-c2cn3c(n2)SCC3)cc1"
  Test Value: 627
- Molecule: "CCOc1ccc(CNC(=O)C2CCN(Cc3cn(C)c4ccccc34)CC2)cc1OCC"
  Test Value: 708
- Molecule: "CCOC(=O)c1noc2ncnc(NCC3CCN(Cc4cccc(F)c4)CC3)c12"
  Test Value: 705
- Molecule: "Cn1nc(C(=O)N2CCOCC2)c2c1CCN(C(=O)Nc1ccc(F)c(Cl)c1)C2"
  Test Value: 1070
- Molecule: "Cc1cc(N2CCN(S(=O)(=O)c3cc(F)ccc3F)CC2)nc(N2CCCC2)n1"
  Test Value: 717
- Molecule: "O=C(O)c1ccccc1-c1nc2ccccc2[nH]1"
  Test Value: 537
- Molecule: "COc1ccc(CN2CCc3nc(N4CCOCC4)ncc3C2)c(OC)c1OC"
  Test Value: 597
- Molecule: "Cc1nnc2cc(N3CCN(C(=O)Nc4ccc(F)c(Cl)c4)CC3)cnn12"
  Test Value: 658
- Molecule: "CCOc1ccc(NC(=O)Cn2nc(N3CCCC3)c3ccccc3c2=O)cc1"
  Test Value: 809
- Molecule: "Cc1ccc(N2C(=O)N(CC(=O)N3CCCCC3C)C3CS(=O)(=O)CC32)cc1Cl (stereo not given)"
  Test Value: 851
- Molecule: "O=C(Nc1cccc2cccnc12)C1COCC(=O)N1Cc1ccccc1 (stereo not given)"
  Test Value: 777
- Molecule: "CCOc1ccccc1CNC(=O)C1CCN(S(=O)(=O)c2ccc3c(c2)sc(=O)n3C)CC1"
  Test Value: 878
- Molecule: "Cc1nc(-c2ccccc2)nn1C1CCN(S(=O)(=O)c2cn(C)cn2)C1 (stereo not given)"
  Test Value: 632
- Molecule: "COCCn1c(SCc2nc(-c3ccccc3C)no2)nc2cc3c(cc2c1=O)OCO3"
  Test Value: 1120

* * *

Assay Overview: gradient 5% acetonitrile 3 min, to 50% in 2 min, to 85% in 15 min, held 3 min, 100 µL/min
Experimental Conditions: column: Zorbax Extend-C18 2.1 x 50 mm; eluents: water / acetonitrile, 0.1% formic acid
// boundary case: RP-LC retention time equal to 700 s maps to not met; strictly smaller maps to met

- Molecule: "O=C(Nc1ccc(CC(=O)N2CCOCC2)cc1)NC(c1ccccc1)c1ccccc1"
  Cat: "not met"
- Molecule: "CC(=O)Nc1ccc2c(c1)Sc1ncccc1C(=O)N2C(C)C"
  Cat: "met"
- Molecule: "O=C(CSC1CCc2ccccc2NC1=O)Nc1ccccc1 (stereo not given)"
  Cat: "not met"
- Molecule: "CC(=O)Nc1ccc(-c2noc(C3CCN(C(=O)c4ccc5cc[nH]c5c4)CC3)n2)cc1"
  Cat: "not met"

The values you see were collected from the METLIN SMRT retention time set (Domingo-Almenara et al. 2019).
